# Target Or Test System: isolated recombinant JAK2 kinase domain (Homo sapiens (Human))
# Sequence (O60674 849-1124): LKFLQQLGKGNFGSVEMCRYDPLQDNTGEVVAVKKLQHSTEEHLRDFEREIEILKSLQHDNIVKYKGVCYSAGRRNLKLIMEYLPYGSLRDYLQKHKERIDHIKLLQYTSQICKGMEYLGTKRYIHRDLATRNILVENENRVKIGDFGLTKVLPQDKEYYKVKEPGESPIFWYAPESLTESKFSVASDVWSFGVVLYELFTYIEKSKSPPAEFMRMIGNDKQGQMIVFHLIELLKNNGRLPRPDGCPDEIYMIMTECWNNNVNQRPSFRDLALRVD
# Test Context: read-out: JAK2 Ki; isolated recombinant JAK2 kinase domain, 25 μM ATP
Experimental Endpoint: Ki (nM)

{"columns": ["Compound", "Ki / nM"],
 "data": [
  ["CN1CCCC12CN(C(=O)c1ccc(Nc3nc4c(N5CCC(CO)(c6ccc(Cl)cc6)CC5)cccn4n3)cc1)C2 [Example 1-274]", 0.17]
]}

I. CN1CCC(N(C)C(=O)c2ccc(Nc3nc4c(N5CCC(O)(c6ccc(C#N)cc6)CC5)cccn4n3)cc2)CC1 [Example 1-21]
II. CN1CCC(N(C)C(=O)c2ccc(Nc3nc4c(N5CCC(CC#N)(c6ccccc6)CC5)cccn4n3)cc2)CC1 [Example 1-41]
III. CN1CCC(N(C)C(=O)c2ccc(Nc3nc4c(N5CCC(O)(c6ccccc6Cl)CC5)cccn4n3)cc2)CC1 [Example 1-35]
IV. CN1CCCC(CN(C)C(=O)c2ccc(Nc3nc4c(N5CCC(O)(c6ccc(Cl)cc6)CC5)cccn4n3)cc2)C1 (centres unmarked) [Example 1-170]
Parameters: sort_field (Ki), sort_dir (desc). Write the labels out in the order the request specifies.
III, I, IV, II
(III: 27.7 nM, I: 6.49 nM, IV: 0.98 nM, II: 0.2 nM)

---

# System: JAK1-dependent STAT6 phosphorylation downstream of IL-13 stimulation in TF-1 human erythroleukemia cells
# Assay: cells
# Test Context: TF-1, read-out: IL-13-pSTAT6 IC50
Experimental Endpoint: IC50 (nM)

Recorded results for 2 compounds are shown here.
{"columns": ["Compound", "Quantitative Readout"],
 "data": [
  ["O=C(CCC(F)(F)F)N1CC=C(c2cccn3nc(Nc4ccc(C(=O)N5CCN(C6CC6)CC5)cc4)nc23)CC1", 11.5],
  ["O=C(NCCN1CCCC1)c1ccc(Nc2nc3c(C4=CCN(C(=O)CCC(F)(F)F)CC4)cccn3n2)cc1", 17.9]
]}

I. Cc1ccc(CC2CCN(C(=O)c3ccc(Nc4nc5c(C6=CCN(C(=O)CCC(F)(F)F)CC6)cccn5n4)cc3)C2)nc1 (stereo not shown)
II. O=C(NC1CCN(C2CCCC2)CC1)c1ccc(Nc2nc3c(N4CCC(CO)(c5ccc(Cl)cc5)CC4)cccn3n2)cc1
Two entries are listed, I and II . Which one carries the higher IC50? Field: selected label. Fill in the label of the entry you choose.
II
(II: 124 nM, I: 15.4 nM)

---

# Tested on: JAK1-dependent STAT6 phosphorylation downstream of IL-13 stimulation in TF-1 human erythroleukemia cells
# Assay: cells
# Test Context: TF-1, read-out: IL-13-pSTAT6 IC50
pIC50: −log10 of the molar value.
Experimental Endpoint: pIC50

P. O=C(NC1COC2(CCNCC2)C1)c1ccc(Nc2nc3c(N4CCC(O)(c5ccc(Cl)cc5)CC4)cccn3n2)cc1 (stereo not drawn) [Example 1-221]
Q. CN(Cc1ccccn1)C(=O)c1ccc(Nc2nc3c(C4=CCN(C(=O)CCC(F)(F)F)CC4)cccn3n2)cc1 [Example 2-199]
R. Cc1ccc(C2CCCN(C(=O)c3ccc(Nc4nc5c(C6=CCN(C(=O)CCC(F)(F)F)CC6)cccn5n4)cc3)C2)nc1 (stereo not drawn) [Example 2-50]
In a descending ranking, list each entry from above by its pIC50, from the largest value down to the smallest. Form field (ranking): labels in requested order.
Q, R, P
(Q: 8.38, R: 7.19, P: 6.06)
